- MEASURED TARGET: human chemokine receptor CXCR7 (Homo sapiens (Human))
- Sequence (P25106 whole entry): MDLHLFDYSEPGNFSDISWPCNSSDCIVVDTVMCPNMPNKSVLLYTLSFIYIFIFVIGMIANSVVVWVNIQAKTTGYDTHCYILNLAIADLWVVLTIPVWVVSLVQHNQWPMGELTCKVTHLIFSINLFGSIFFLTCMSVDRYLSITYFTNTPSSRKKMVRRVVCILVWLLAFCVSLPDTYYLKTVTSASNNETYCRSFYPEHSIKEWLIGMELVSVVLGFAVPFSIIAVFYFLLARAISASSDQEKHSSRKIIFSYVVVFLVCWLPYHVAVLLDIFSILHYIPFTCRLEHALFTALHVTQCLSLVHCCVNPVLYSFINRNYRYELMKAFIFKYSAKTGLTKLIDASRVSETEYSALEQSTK
- PROTOCOL DESCRIPTION: Tango CXCR7-bla U2OS beta-arrestin recruitment assay (beta-lactamase reporter, FRET), antagonism of CXCL12/SDF1-α;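 note: compounds preincubated 15 min before CXCL12 addition, then 22 h at 37 °C, FRET emission ratio read with CCF4-AM substrate after 2 h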
- Assay type: cell-based
- SETTINGS: antagonistic effect on CXCR7; Tango CXCR7-bla U2OS cells, CXCL12/SDF1-α at its EC80
// boundary case: IC50 equal to 300 nM maps to No; strictly smaller maps to Yes

[[record]]
compound = "C[C@@H]1CCC[C@H]1N1CC[C@@H](NC(=O)c2cc(-c3ccc(F)cc3F)no2)[C@H](C(=O)N[C@H](C)c2ccccn2)C1 (relative stereo)"
measured_target = "human chemokine receptor CXCR7 (Homo sapiens (Human))"
label_value = "No"


Does the reported IC50 of C[C@@H](NC(=O)[C@H]1CN(CC2CC2)CC[C@@H]1NC(=O)c1cc(-c2c(F)cc(F)cc2F)on1)c1ccccn1 (single isomer, unassigned) [Example 1.123a] stay below 300 nM? Yes

Does the reported IC50 of CN(C)C(=O)[C@@H]1CN(C2CCCC2)CC[C@H]1NC(=O)c1ncc(-c2ccc(F)cc2F)o1 (racemic) stay below 300 nM? No

Does the reported IC50 of Cc1ccccc1CCNC(=O)[C@@H]1CN(C2CCCCC2)CC[C@H]1NC(=O)c1cc(-c2ccc(F)cc2F)on1 (racemic) stay below 300 nM? Yes

Does the reported IC50 of COCC(C)(C)NC(=O)[C@@H]1CN(C2CCCCC2)CC[C@H]1NC(=O)c1cc(-c2c(F)cc(F)cc2F)on1 (single isomer, unassigned) [Example 1.111a] stay below 300 nM? No

Does the reported IC50 of CN(C)C(=O)[C@@H]1CN(C2CCCCC2)CC[C@H]1NC(=O)c1nc(-c2ccc(F)cc2F)no1 (racemic) stay below 300 nM? No

Does the reported IC50 of C[C@@H](NC(=O)[C@@H]1CN(C2CCCCC2)CC[C@H]1NC(=O)c1cc(-c2c(F)cc(F)cc2F)on1)c1ccccn1 (single isomer, unassigned) [Example 1.121a] stay below 300 nM? No
